# OD450/OD450 Control antibody 1 annotations
Target: T1, soluble human IL-4Rα (sIL-4Rα; PEPRO TECH, Catalog Number: 200-04R) (human, UniProt P24394 26-232)
T1 construct: Bought protein; also called shIL-4Rα; soluble hIL-4 Rα
T1 sequence: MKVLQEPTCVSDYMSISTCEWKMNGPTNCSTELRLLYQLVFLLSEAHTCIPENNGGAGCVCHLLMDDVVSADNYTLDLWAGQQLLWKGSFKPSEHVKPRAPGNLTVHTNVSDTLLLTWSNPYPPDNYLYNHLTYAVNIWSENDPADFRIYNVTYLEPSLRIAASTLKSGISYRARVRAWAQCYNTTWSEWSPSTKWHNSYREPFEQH
Test: ELISA, coated sIL-4Rα, culture supernatant

Examples with their reported OD450/OD450 Control antibody 1 follow.
binder	OD450/OD450 Control antibody 1
L1021H1020 (antibody, V domains shown) VH: EVQLVQSGGGLVHPGGSLRLSCAGSGFTFSRNAMFWVRQAPGKGLEWVSGIGTGGATSYADSVKGRFTISRDNAKNSLYLQMNSLRAEDMAVYYCARGRYYFPWWGQGTLVTVSS VL: EIVLTQSPGTLSLSPGERATLSCRASQSVSSSYLAWYQQKPGQAPRLLIFGASSRAPGIPDRFSGSGSGTDFTLTISRLEPEDFAVYYCQQYDHSAGWTFGQGTKVEIK	0.24 ratio to control antibody 1
L1020H1020 (antibody, V domains shown) VH: EVQLVQSGGGLVHPGGSLRLSCAGSGFTFSRNAMFWVRQAPGKGLEWVSGIGTGGATSYADSVKGRFTISRDNAKNSLYLQMNSLRAEDMAVYYCARGRYYFPWWGQGTLVTVSS VL: EIVLTQSPGTLSLSPGERATLSCRASQSVSSSYLAWYQQKPGQAPRLLIYGASSRATGIPDRFSGSGSGTDFTLTISRLEPEDFAVYYCQQYDHSAGWTFGQGTKVEIK	0.26 ratio to control antibody 1

Continue with the binder presented below.
If you can, please state the reported OD450/OD450 Control antibody 1 value of L1024H1007 (antibody, V domains shown) VH: EVQLVQSGGGLVHPGGSLRLSCAGSGFTFSRNAMFWVRQAPGKGLEWVSGIGTGGATSYADSVKGRFTISRDNAKNSLYLQMNSLRAEDMAVYYCARGRYYFDYWGQGTLVTVSS VL: EIVLTQSPGTLSLSPGERATLSCRASQSVSNSYLAWYQQKPGQAPRLLIFGASSRAPGIPDRFSGSGSGTDFTLTISRLEPEDFAVYYCQQYDHSAGWTFGQGTKVEIK .
0.23 ratio to control antibody 1
